test system: Malme-3M; experiment: NCI tumour cell line growth inhibition, 48 h
The source made the active and inactive calls. Rule as the data show it: active = GI50 up to about 1.1 µM and inactive = higher.
What GI50 was measured for each of the following?

{"molecule": "Oc1ccc(O)c(CNc2ccc(C(O)C(F)(F)F)cc2)c1 (centres undefined)", "target": "Malme-3M", "GI50": "15.6 µM (inactive)"}

Batch: GI50 for all items listed.
1. O=C(Nc1nc2ccc([N+](=O)[O-])cc2s1)C(=O)C(C1OC(=O)c2ccccc21)[N+](=O)[O-] (centres undefined)
2. C/C(CC(=O)Nc1ccc(Cl)c(Cl)c1)=N/NC(=O)C[n+]1ccccc1
3. CC(O)CNC(=O)Nc1c(C(F)(F)F)cc(-c2ccccc2)[nH]c1=O (centres undefined)

## Result
1. > 100 µM (inactive)
2. > 100 µM (inactive)
3. > 100 µM (inactive)
